Quantity Measured: melting point

[[record]]
structure = "CCCOc1ccc(CN2CCN(C(=O)c3cc4ccc(Oc5ccc(N(C)S(=O)(=O)c6ccc(Cl)c(Cl)c6)cn5)cc4n3C)CC2)cc1"
experimental_value = "231.7 to 235 °C (dec.)"

[[record]]
structure = "O=C(CN1CCc2cc(Oc3ccc(NS(=O)(=O)c4ccc(Cl)c(Cl)c4)cn3)ccc21)N1CCN(Cc2ccc3c(c2)OCO3)CC1"
experimental_value = "152 to 153 °C"

[[record]]
structure = "Br.Cn1c(C(=O)N2CCN(Cc3ccc4c(c3)OCO4)CC2)cc2cc(Oc3ccc(NC(=O)c4ccc(C(F)(F)F)cc4C(F)(F)F)cn3)ccc21"
experimental_value = "258 to 261 °C (dec.)"

[[record]]
structure = "CN(c1ccc(Oc2ccc3cc(C(=O)N4CCN(Cc5ccc6c(c5)OC(F)(F)O6)CC4)n(C)c3c2)nc1)S(=O)(=O)c1ccc(Cl)c(Cl)c1"
experimental_value = "149.9 to 151.3 °C"

[[record]]
structure = "CC(C)Oc1ccc(CN2CCN(C(=O)c3cc4cc(Oc5ccc(N(C)C(=O)c6ccc(C(F)(F)F)cc6)cn5)ccc4n3C)CC2)cc1.O=C(O)/C=C\\C(=O)O"
experimental_value = "140 to 142 °C"

[[record]]
structure = "Br.CC(C)Oc1ccc(CN2CCN(C(=O)c3cc4ccc(Oc5ccc(NC(=O)c6ccc(C(F)(F)F)cc6)cn5)cc4n3C)CC2)cc1"
experimental_value = "258.7 to 259.6 °C"


Source listed as patent US8551999B2.
